system: K-562 leukemia; experiment: NCI tumour cell line growth inhibition, 48 h
*1 amine or outer side, *2 acyl side, *3 side chain or, on linkers, in order; H or OH if unused. Where a SMILES comes first, the peptide text is derived from it. [ ]: non-standard residue; d: D form. The star is where a group is joined. X31 = CC(=O)N(C)SCC(N[*:1])C(=O)[*:2]; Cbz = O=C(OCc1ccccc1)*; Bn = c1ccc(C*)cc1; For = O=C*
value type: TGI

[
  {
    "molecule": "CNS(=O)(=O)NN(C)S(=O)(=O)c1ccccc1",
    "test target": "K-562 leukemia",
    "TGI": "> 100 µM"
  },
  {
    "molecule": "Cc1csc2c(=O)n(C3OC(CO)C(O)C3O)c(=O)[nH]c12 (stereo not given)",
    "test target": "K-562 leukemia",
    "TGI": "> 100 µM"
  },
  {
    "molecule": "Oc1ccccc1/C=C/c1csnn1",
    "test target": "K-562 leukemia",
    "TGI": "> 100 µM"
  },
  {
    "molecule": "NN(CC(=O)O)CC(=O)O",
    "test target": "K-562 leukemia",
    "TGI": "> 100 µM"
  },
  {
    "molecule": "CC(=O)N(C)SCC(NC(=O)C(Cc1ccccc1)NC(=O)OCc1ccccc1)C(=O)NC(Cc1ccccc1)C(=O)NC(Cc1cn(C=O)c2ccccc12)C(=O)NC(CCCCNC(=O)OCc1ccccc1)C(=O)NC(C(=O)NC(CSN(C)C(C)=O)C(=O)NC(C(N)=O)C(C)OCc1ccccc1)C(C)OCc1ccccc1 (stereo not given) (Cbz-F[X31]FW(For)K(Cbz)T(Bn)[X31]T(Bn)-NH2; configuration not given here)",
    "test target": "K-562 leukemia",
    "TGI": "> 100 µM"
  }
]

Prompt: Item "C=C(C)C(=O)Nc1ccc(NC(C)C)cc1" has what recorded TGI?
Response: > 100 µM

Prompt: Suppose we examine the molecule C=C1CCC2C3(C)COC(c4ccc(N(C)C)cc4)OC3CCC2(C)C1C/C=C1/C(=O)OCC1O (stereo not given) ; what TGI value has been reported?
Response: 3.37 µM

Prompt: Report TGI for "CC(C)N(Cc1ccccc1)c1c(S)ssc1=S" please.
Response: 3.81 µM

Each recorded value in this set is attributed to PubChem BioAssay (NCI).
